Here, each record is paired with measured ELISA signal data.
Molecular target: T1, murine HVEM (murine, UniProt Q80WM9 39-206, limits assumed); note: test concentration or dose not given here
T1 construct: also called Mouse
T1 sequence (looked up): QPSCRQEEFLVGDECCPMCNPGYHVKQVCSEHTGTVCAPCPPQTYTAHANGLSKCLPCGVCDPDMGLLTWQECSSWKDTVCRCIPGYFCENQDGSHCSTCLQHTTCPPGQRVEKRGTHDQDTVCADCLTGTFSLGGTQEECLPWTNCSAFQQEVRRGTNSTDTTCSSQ
Assay: ELISA

Dear colleague, I am looking for the recorded ELISA signal of the following binder: Ab_059 (H5S19-3B10B) (antibody, V domains shown, also called Ab_59) VH: QIQLVQSGPELKKPGETVKISCKASGYTFTNFGVNWVKQAPGKGLKWMGWINTYTGEPTYADDFKGRFAFSLETSASTAYLRINNLKNEDTATYFCARSFYKNYAFWGQGTILTVSS VL: QIVLTQSPAIMSASPGEKVTLTCSASSSVDSSYLFWYQQKPGSSPKLWIYSTSNLASGVPARFSGSGSGTSYSLTISSMEAEDAASYFCHQWSSYPWTFGGGTILEI
0.043

# input binder: Ab_048 (H5S19-24A22A) (antibody, V domains shown, also called Ab_48) VH: QVQLQQSGGELLRPGTSVKVSCKASGYAFTNYLIEWVKQRPGQGLEWIGVINPGSGGIYYKEKFKDKAILTADKSSSTAYMQLSSLTSDDSAVYFCARGDAMDFWGQGTSVTVSS VL: DAVMTQTPLSLTVSLGDQASISCRSSQTLENTNGNTYLNWYLQKPGQSPQLLIYRVSNRFSGVLDRFSGSGSGTDFTLKISRVEAEDLGVYFCLQVTHVPYTFGGGTKLEIK ; wanted: its ELISA signal
0.044

Quick one: ELISA signal for Ab_084 (H5S20-51A40A) (antibody, V domains shown, also called Ab_84) VH: QVQLKQSGPGLVQPSQSLSITCTVSGFSLTSYGVHWVRQSPGKGLEWLGVIWRGGSTDYNAAFMSRLSITKDNSKSQVFFKMNSLQADDTAIYYCAKNRGYGEGYYAMDYWGQGTSVTVSS VL: DIVMTQSQKFMSTSVGDRVSVTCKASQNVGTNVAWYQQKPGQSPKALIYSASYRYSGVPDRFTGSGSGTDFTLTISNVQSEDLAEYFCQQYNSYPLTFGAGTKLELK ?
0.043
